test system: IGROV-1; experiment: Inhibition of cells growth by colorimetric (SRB) assay, IGROV-1; settings: read-out: LC50 IGROV; SRB assay, 48 hours exposure
Provide the reported CC50 of each item.

Value wanted: CC50 (IGROV-1) of entry `Cl.Nc1nccc(-c2c3cc4ccccc4nc3n3c(N)nccc23)n1` 13 µM

Value wanted: CC50 (IGROV-1) of entry `Nc1nccc2c(-c3ccncn3)c3c(O)ccnc3n12` 13.2 µM

Value wanted: CC50 (IGROV-1) of entry `COc1ccnc2c1c(-c1ccnc(N)n1)c1ccnc(N)n12.Cl` 26.3 µM

Value wanted: CC50 (IGROV-1) of entry `COc1nccc(-c2c3cccnc3n3c(N)nccc23)n1` 3.42 µM

Value wanted: CC50 (IGROV-1) of entry `COc1nccc(-c2c3cccnc3n3c(N)nccc23)n1.Cl` 20.5 µM

Value wanted: CC50 (IGROV-1) of entry `Cl.Nc1nccc2c(-c3ccncn3)c3c(O)ccnc3n12` 29.6 µM

Value wanted: CC50 (IGROV-1) of entry `CCOc1nccc(-c2c3cccnc3n3c(N)nccc23)n1` ≥ 32.6 µM

Value wanted: CC50 (IGROV-1) of entry `Cc1ccc2c(-c3ccnc(N)n3)c3ccnc(N)n3c2n1` 23 µM

Value wanted: CC50 (IGROV-1) of entry `Nc1nccc(-c2c3c(N)ccnc3n3c(N)nccc23)n1` 1.41 µM

Value wanted: CC50 (IGROV-1) of entry `Cl.Nc1nccc(-c2c3c(N)ccnc3n3c(N)nccc23)n1` 6.02 µM

###

Provide the reported H-MEC-1 TGI of each item.
system: HMEC1; experiment: Inhibition of cells growth by colorimetric (SRB) assay, HMEC1; conditions: SRB assay, 48 hours exposure; in M (unit assumed)
Please respond with just the number, no unit label.

I'd like to know its H-MEC-1 TGI. The compound in question is Nc1nccc2c(-c3ccncn3)c3cccnc3n12 [Compound 70] 3.93E−07

I'd like to know its H-MEC-1 TGI. The compound in question is CSc1nccc2c(-c3cccc([N+](=O)[O-])c3)c3cccnc3n12 [Compound 59] 2.97E−05

I'd like to know its H-MEC-1 TGI. The compound in question is Nc1nccc2c(-c3ccccc3)c3cccnc3n12 [Compound 63] 3.84E−05

I'd like to know its H-MEC-1 TGI. The compound in question is Cc1nccc(-c2c3cccnc3n3c(N)nccc23)n1 [Compound 75] 8.00E−06

###

test system: DU-145; experiment: Inhibition of cells growth by colorimetric (SRB) assay, DU-145; conditions: read-out: LC50 DU-145; SRB assay, 48 hours exposure
Output 1 (yes) for records whose CC50 is lower than 20 µM, 0 (no) for records at or above 20 µM.

Criterion: CC50 strictly below 20 µM. Is it met by `COc1nccc(-c2c3cccnc3n3c(N)nccc23)n1.Cl` ? 0 (no)

Criterion: CC50 strictly below 20 µM. Is it met by `CCOc1nccc(-c2c3cccnc3n3c(N)nccc23)n1` ? 0 (no)

Criterion: CC50 strictly below 20 µM. Is it met by `COc1ccnc2c1c(-c1ccnc(N)n1)c1ccnc(N)n12.Cl` ? 0 (no)

Criterion: CC50 strictly below 20 µM. Is it met by `COc1nccc(-c2c3cccnc3n3c(N)nccc23)n1` ? 1 (yes)

Criterion: CC50 strictly below 20 µM. Is it met by Nc1nccc(-c2c3cc4ccccc4nc3n3c(N)nccc23)n1 [Compound 19a] ? 1 (yes)

Criterion: CC50 strictly below 20 µM. Is it met by `CCOc1nccc(-c2c3cccnc3n3c(N)nccc23)n1.Cl` ? 1 (yes)

Criterion: CC50 strictly below 20 µM. Is it met by `Cl.Nc1nccc(-c2c3c(N)ccnc3n3c(N)nccc23)n1` ? 0 (no)

Criterion: CC50 strictly below 20 µM. Is it met by `Nc1nccc(-c2c3c(N)ccnc3n3c(N)nccc23)n1` ? 1 (yes)

Criterion: CC50 strictly below 20 µM. Is it met by `Cl.Nc1nccc(-c2c3cc4ccccc4nc3n3c(N)nccc23)n1` ? 0 (no)

Criterion: CC50 strictly below 20 µM. Is it met by `COc1ccnc2c1c(-c1ccnc(N)n1)c1ccnc(N)n12` ? 1 (yes)

Criterion: CC50 strictly below 20 µM. Is it met by `Cl.Nc1nccc2c(-c3ccncn3)c3c(O)ccnc3n12` ? 0 (no)

###

system: PANC-1; assay: Inhibition of cells growth by colorimetric (SRB) assay, PANC-1; settings: read-out: LC50 PANC-1; SRB assay, 48 hours exposure
Provide the reported CC50 of each item.
Write it as a number; the unit µM goes unstated.

I'd like to know its CC50. The compound in question is `Cl.Nc1nccc(-c2c3c(N)ccnc3n3c(N)nccc23)n1` 16.2

I'd like to know its CC50. The compound in question is `COc1ccnc2c1c(-c1ccnc(N)n1)c1ccnc(N)n12.Cl` 26.3

###

test system: K-562; assay: Inhibition of cells growth by colorimetric (SRB) assay, K-562; details: read-out: GI50 K-562; SRB assay, 48 hours exposure
Output yes (1) for records whose GI50 is lower than 2000 nM, no (0) for records at or above 2000 nM.

Criterion: GI50 strictly below 2000 nM. Is it met by `Cc1ccc2c(-c3ccnc(N)n3)c3ccnc(N)n3c2n1` ? yes (1)

Criterion: GI50 strictly below 2000 nM. Is it met by `Cl.Nc1nccc2c(-c3ccncn3)c3c(O)ccnc3n12` ? no (0)

Criterion: GI50 strictly below 2000 nM. Is it met by `Cl.Nc1nccc(-c2c3c(N)ccnc3n3c(N)nccc23)n1` ? yes (1)

Criterion: GI50 strictly below 2000 nM. Is it met by `Cl.Nc1nccc(-c2c3cc4ccccc4nc3n3c(N)nccc23)n1` ? no (0)

Criterion: GI50 strictly below 2000 nM. Is it met by `Cc1ccc2c(-c3ccnc(N)n3)c3ccnc(N)n3c2n1.Cl` ? no (0)

Criterion: GI50 strictly below 2000 nM. Is it met by `CCOc1nccc(-c2c3cccnc3n3c(N)nccc23)n1.Cl` ? yes (1)

Criterion: GI50 strictly below 2000 nM. Is it met by `COc1nccc(-c2c3cccnc3n3c(N)nccc23)n1` ? yes (1)

Criterion: GI50 strictly below 2000 nM. Is it met by `COc1ccnc2c1c(-c1ccnc(N)n1)c1ccnc(N)n12.Cl` ? no (0)

Criterion: GI50 strictly below 2000 nM. Is it met by `CCOc1nccc(-c2c3cccnc3n3c(N)nccc23)n1` ? yes (1)

Criterion: GI50 strictly below 2000 nM. Is it met by Nc1nccc(-c2c3cc4ccccc4nc3n3c(N)nccc23)n1 [Compound 19a] ? yes (1)

Criterion: GI50 strictly below 2000 nM. Is it met by `COc1nccc(-c2c3cccnc3n3c(N)nccc23)n1.Cl` ? yes (1)

###

system: DU-145; test: Inhibition of cells growth by colorimetric (SRB) assay, DU-145; details: Homo sapiens, DU-145, 48 h, read-out: GI50 DU-145, SRB assay, 48 hours exposure
QUANTITY KIND: GI50

I'd like to know its GI50. The compound in question is `COc1nccc(-c2c3c(OC)ccnc3n3c(N)nccc23)n1` 1.63 µM

I'd like to know its GI50. The compound in question is `CSc1nccc2c(C(C)C)c3cccnc3n12` 14.9 µM

I'd like to know its GI50. The compound in question is `Nc1nccc2c(-c3ccnc(O)n3)c3c(O)ccnc3n12` 16.2 µM

I'd like to know its GI50. The compound in question is `CSc1nccc2c(-c3cccs3)c3cccnc3n12` ≥ 33.6 µM

I'd like to know its GI50. The compound in question is `COc1nccc(-c2c3c(N)ccnc3n3c(N)nccc23)n1` 0.902 µM

###

Provide the reported log10 of GI50 of each item.
Test system: IGROV-ET
Assay: Inhibition of cells growth by colorimetric (SRB) assay, IGROV-ET
Details: Homo sapiens, 48 h, read-out: GI50 IGROV-ET, SRB assay, 48 hours exposure
Description: The finality of these assays is to interrupt the growth of a “in vitro” tumor cell culture by means a continued exhibition of the cells to the sample to be testing. […] Cells are seeded in 96 well microtiter plates, at 5×10^3 cells per well in aliquots of 195 μl medium, and they are allowed to attach to the plate surface by growing in drug free medium for 18 hours. […] Optical densities are read on a automated spectrophotometric plate reader at a single wavelength of 490 nm. […]
Values reflect log10 of reported GI50 (nM).

I'd like to know its log10 of GI50. The compound in question is `Nc1nccc(-c2c3cccnc3n3ccccc23)n1` 4.06

I'd like to know its log10 of GI50. The compound in question is `Nc1nccc(-c2c3cc(F)c(Cl)nc3n3c(N)nccc23)n1` 4.11

I'd like to know its log10 of GI50. The compound in question is `Nc1nccc(-c2c3c(F)ccnc3n3c(N)nccc23)n1` 3.17

I'd like to know its log10 of GI50. The compound in question is Nc1nccc(-c2c3c(O)ccnc3n3c(N)nccc23)n1 [Variolin B1, variolin B, reference compound] 3.11

I'd like to know its log10 of GI50. The compound in question is `COc1nccc(-c2c3c(N)ccnc3n3c(N)nccc23)n1` 3.15

I'd like to know its log10 of GI50. The compound in question is `CC(C)c1c2cccnc2n2c(N)nccc12` 3.99

I'd like to know its log10 of GI50. The compound in question is COc1ccc2nc3c(cc2c1)c(-c1ccnc(N)n1)c1ccnc(N)n13 [Compound 19b] 3.51

I'd like to know its log10 of GI50. The compound in question is `Nc1nccc(-c2c3c(Cl)ccnc3n3c(N)nccc23)n1` 3.11

I'd like to know its log10 of GI50. The compound in question is `CSc1nccc(-c2c3cccnc3n3c(N(C(C)=O)C(C)=O)nccc23)n1` 3.23

I'd like to know its log10 of GI50. The compound in question is `Nc1nccc2c(-c3ccnc(O)n3)c3c(O)ccnc3n12` 3.70

I'd like to know its log10 of GI50. The compound in question is `Cc1ccc2c(-c3ccnc(N)n3)c3ccnc(N)n3c2n1.Cl` 2.75

I'd like to know its log10 of GI50. The compound in question is `CSc1nccc2c(C(C)C)c3cccnc3n12` 3.87

I'd like to know its log10 of GI50. The compound in question is `Cl.Nc1nccc(-c2c3cc4ccccc4nc3n3c(N)nccc23)n1` 3.23
